assay summary: amyloid nucleation score (Sup35N fusion, yeast selection) (log enrichment); library NNK2; higher = more nucleation; inactive = no reads after selection;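 further: zero at mode of non-aggregating sequences after 7 days selection at 30°C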
readout kind: amyloid nucleation score

>  <construct sequence>
VDEQSLNR

>  <readout kind>
amyloid nucleation score

>  <readout value>
0.62

$$$$
>  <construct sequence>
WWCMLFNGEGGDCDILDFSS

>  <readout kind>
amyloid nucleation score

>  <readout value>
-0.385

$$$$
>  <construct sequence>
YVFIYESPYSSRSCPNALVS

>  <readout kind>
amyloid nucleation score

>  <readout value>
-0.011

$$$$
>  <construct sequence>
TVALNSWARHGEML

>  <readout kind>
amyloid nucleation score

>  <readout value>
-0.375

$$$$
>  <construct sequence>
RAWCYTGMRGDMESW

>  <readout kind>
amyloid nucleation score

>  <readout value>
-0.447

$$$$
>  <construct sequence>
VCNFSTLELVVEDGSKAYRG

>  <readout kind>
amyloid nucleation score

>  <readout value>
-0.079

$$$$
>  <construct sequence>
LSVCLHHHNIAWDRCSGR

>  <readout kind>
amyloid nucleation score

>  <readout value>
-0.469

$$$$
>  <construct sequence>
EVMCMSRYDPR

>  <readout kind>
amyloid nucleation score

>  <readout value>
-0.557

$$$$
>  <construct sequence>
CKEDIISSEWYLSVGFA

>  <readout kind>
amyloid nucleation score

>  <readout value>
inactive

$$$$
>  <construct sequence>
NRCFEGFAVARFDAGRV

>  <readout kind>
amyloid nucleation score

>  <readout value>
-0.378

$$$$
>  <construct sequence>
LLFVCVFYVYSSPDNHILAM

>  <readout kind>
amyloid nucleation score

>  <readout value>
-0.633

$$$$
>  <construct sequence>
CLNWKYKNRELQVFNDSRVV

>  <readout kind>
amyloid nucleation score

>  <readout value>
-2.77

$$$$
>  <construct sequence>
TFTFDGRSSNFG

>  <readout kind>
amyloid nucleation score

>  <readout value>
-0.343

$$$$
>  <construct sequence>
GYKHLIRVQWSKTYSSTGFC

>  <readout kind>
amyloid nucleation score

>  <readout value>
-0.356

$$$$
>  <construct sequence>
CSPVLKSSFNALARKRMLAR

>  <readout kind>
amyloid nucleation score

>  <readout value>
1.29

$$$$
>  <construct sequence>
LVTARQLARI

>  <readout kind>
amyloid nucleation score

>  <readout value>
0.121

$$$$
>  <construct sequence>
MRSTALYDILRRPWFNFSAY

>  <readout kind>
amyloid nucleation score

>  <readout value>
-0.014

$$$$
>  <construct sequence>
FVRSWSTCCDA

>  <readout kind>
amyloid nucleation score

>  <readout value>
-0.176

$$$$
>  <construct sequence>
QSPSIRTCTYYGTYRRLKKG

>  <readout kind>
amyloid nucleation score

>  <readout value>
inactive

$$$$
>  <construct sequence>
VCQRPEMVLNSIETLQPRWS

>  <readout kind>
amyloid nucleation score

>  <readout value>
0.211

$$$$
>  <construct sequence>
LYVFPCHILDDRCFLCGGWF

>  <readout kind>
amyloid nucleation score

>  <readout value>
-0.353

$$$$
>  <construct sequence>
TFRYVWLSHPV

>  <readout kind>
amyloid nucleation score

>  <readout value>
3.63

$$$$
>  <construct sequence>
QLTQYQSKTRTMCRKQERTV

>  <readout kind>
amyloid nucleation score

>  <readout value>
1.88

$$$$
>  <construct sequence>
VYIILSFSIGMGEFNMISGG

>  <readout kind>
amyloid nucleation score

>  <readout value>
-0.587

$$$$
>  <construct sequence>
FVRASGHTTCYSCQLSTPGP

>  <readout kind>
amyloid nucleation score

>  <readout value>
1.34

$$$$
>  <construct sequence>
ITPMFPCLVVWWWESR

>  <readout kind>
amyloid nucleation score

>  <readout value>
-0.235

$$$$
>  <construct sequence>
HMMFKSPYRCLLLNLTGYVL

>  <readout kind>
amyloid nucleation score

>  <readout value>
0.934

$$$$
>  <construct sequence>
SFTYASSV

>  <readout kind>
amyloid nucleation score

>  <readout value>
-1.1

$$$$
>  <construct sequence>
TGDSYLYRWVSARFGHRLRS

>  <readout kind>
amyloid nucleation score

>  <readout value>
-0.314

$$$$
>  <construct sequence>
ENLKCEPLGRVRLKDHVYVV

>  <readout kind>
amyloid nucleation score

>  <readout value>
0.228

$$$$
>  <construct sequence>
MCFAHVRNFSEW

>  <readout kind>
amyloid nucleation score

>  <readout value>
1.47

$$$$
>  <construct sequence>
NMLYHYIDRSCRGAMDHHGR

>  <readout kind>
amyloid nucleation score

>  <readout value>
inactive

$$$$
>  <construct sequence>
IVSVFQYRTVNIFVGFYYIR

>  <readout kind>
amyloid nucleation score

>  <readout value>
inactive

$$$$
>  <construct sequence>
LLFMSSNIFDMCREFDRC

>  <readout kind>
amyloid nucleation score

>  <readout value>
inactive

$$$$
>  <construct sequence>
SNLLWAKSGPKAVWKPGRWD

>  <readout kind>
amyloid nucleation score

>  <readout value>
0.423

$$$$
>  <construct sequence>
RRGTQVFCCDYWSARGSWT

>  <readout kind>
amyloid nucleation score

>  <readout value>
8.75

$$$$
>  <construct sequence>
PLLTMWDLDSGVSGFCQVRS

>  <readout kind>
amyloid nucleation score

>  <readout value>
-0.477

$$$$
>  <construct sequence>
YKNVAFCFVRMFFEGHSINC

>  <readout kind>
amyloid nucleation score

>  <readout value>
-1.45

$$$$
>  <construct sequence>
YLDAHILHE

>  <readout kind>
amyloid nucleation score

>  <readout value>
4.54

$$$$
>  <construct sequence>
KPFFEKFVSTLGLWFEQLKS

>  <readout kind>
amyloid nucleation score

>  <readout value>
-0.574

$$$$
>  <construct sequence>
VSYPVCMGKWHGSTRILNRH

>  <readout kind>
amyloid nucleation score

>  <readout value>
0.669

$$$$
>  <construct sequence>
VYYSNTTTRSCSEMQVVFFF

>  <readout kind>
amyloid nucleation score

>  <readout value>
-1.13

$$$$
>  <construct sequence>
WHEWCEGCGRNCSWEVGQDR

>  <readout kind>
amyloid nucleation score

>  <readout value>
0.435

$$$$
>  <construct sequence>
TGTFRIAWM

>  <readout kind>
amyloid nucleation score

>  <readout value>
6.64

$$$$
>  <construct sequence>
YVWIQTLYALWYFSLRFAGL

>  <readout kind>
amyloid nucleation score

>  <readout value>
-0.413

$$$$
>  <construct sequence>
FLDKCVRSSIENYWV

>  <readout kind>
amyloid nucleation score

>  <readout value>
-0.074

$$$$
>  <construct sequence>
YVCTRWVAYYLEWYGLDGPV

>  <readout kind>
amyloid nucleation score

>  <readout value>
0.665

$$$$
>  <construct sequence>
FVLMMDYEIIFLN

>  <readout kind>
amyloid nucleation score

>  <readout value>
4.52

$$$$
>  <construct sequence>
SVLSLTKMFGFVADGSRIIK

>  <readout kind>
amyloid nucleation score

>  <readout value>
-0.574

$$$$
>  <construct sequence>
AAVTFSISYFIKTLHLENSS

>  <readout kind>
amyloid nucleation score

>  <readout value>
0.169

$$$$
>  <construct sequence>
FLYNFSHIRFVMYNRNESCF

>  <readout kind>
amyloid nucleation score

>  <readout value>
3.48

$$$$
>  <construct sequence>
GVPLLLRMTCSLCRIAFQE

>  <readout kind>
amyloid nucleation score

>  <readout value>
4.28

$$$$
>  <construct sequence>
SVVVCWGKFLSGVGAWLFHS

>  <readout kind>
amyloid nucleation score

>  <readout value>
inactive

$$$$
>  <construct sequence>
LYLMSHTGFLSNTHIRLAPR

>  <readout kind>
amyloid nucleation score

>  <readout value>
-0.291

$$$$
>  <construct sequence>
SWFWVPGNQLLMTIEGFQWS

>  <readout kind>
amyloid nucleation score

>  <readout value>
-0.281

$$$$
>  <construct sequence>
LKGQYWVLRKGGCEGGLSAG

>  <readout kind>
amyloid nucleation score

>  <readout value>
1.81

$$$$
>  <construct sequence>
GWMQIGSVYLFSE

>  <readout kind>
amyloid nucleation score

>  <readout value>
7.74

$$$$
>  <construct sequence>
TNDVTSWKLTHCYLWPKADF

>  <readout kind>
amyloid nucleation score

>  <readout value>
-0.328

$$$$
>  <construct sequence>
GPWAAVVRGFCPKGDKRSCG

>  <readout kind>
amyloid nucleation score

>  <readout value>
-0.304

$$$$
>  <construct sequence>
NVLRRFNCWRYESGFSNFVN

>  <readout kind>
amyloid nucleation score

>  <readout value>
-1.38

$$$$
>  <construct sequence>
VLTFRRMHD

>  <readout kind>
amyloid nucleation score

>  <readout value>
0.398

$$$$
>  <construct sequence>
RWTKGCDSNCIWF

>  <readout kind>
amyloid nucleation score

>  <readout value>
-0.502

$$$$
>  <construct sequence>
VKYRDIMSRGSVVRQNDKVS

>  <readout kind>
amyloid nucleation score

>  <readout value>
inactive

$$$$
>  <construct sequence>
SWWIGASEVVHGSKSEGI

>  <readout kind>
amyloid nucleation score

>  <readout value>
-0.357

$$$$
>  <construct sequence>
CFAGLFLLSSEFFYRLTSRR

>  <readout kind>
amyloid nucleation score

>  <readout value>
1.58

$$$$
>  <construct sequence>
SFNVYRASGVKVRQWAFHGG

>  <readout kind>
amyloid nucleation score

>  <readout value>
0.076

$$$$
>  <construct sequence>
CFDCNIRGSVWKVYISLIVG

>  <readout kind>
amyloid nucleation score

>  <readout value>
inactive

$$$$
>  <construct sequence>
LAYRKVLCMYSVSHSYTRAC

>  <readout kind>
amyloid nucleation score

>  <readout value>
inactive

$$$$
>  <construct sequence>
LWMVFSGNALEKYSSDFCHC

>  <readout kind>
amyloid nucleation score

>  <readout value>
-1.22

$$$$
>  <construct sequence>
MHSLISELLLPNTIFGSAGI

>  <readout kind>
amyloid nucleation score

>  <readout value>
-0.707

$$$$
>  <construct sequence>
KTLFINLHSCCANVGYAVRW

>  <readout kind>
amyloid nucleation score

>  <readout value>
4.87

$$$$
